Recorded clearance values for a group of molecules are listed next.
- test-name: Clearance and half life: pharmacokinetics after IV or PO dosing, plasma measured by LC/MS/MS
- Type: in vivo
- measurement-parameters: rat; clearance from plasma levels (LC/MS/MS, WinNonlin); PEG 400 formulation; route for the table values not stated
Give the value, in units of mL/min/kg, as a plain number.

molecule | clearance [mL/min/kg]
O=C(N[C@@H](Cc1ccc(OC(=O)N2CCOCC2)cc1)C(=O)O)c1ccccc1Cl [referencecarbamate] | 50

Turning now to a further molecule:
Problem: For `O=C(N[C@@H](Cc1ccc(OC(=S)N2CCOCC2)cc1)C(=O)O)c1ccccc1Cl` , write its clearance.
Result: 23

Where do these numbers come from? They come from patent US7015323B2.
